Endpoint summary: pKi, system: 5-hydroxytryptamine receptor 2A (Homo sapiens), multiple sources combined.
Notebook: values listed as pKi are -log10 of the concentration (mol/L).

# get_value(readout= pKi, system= 5-hydroxytryptamine receptor 2A (Homo sapiens)) for O=C(N[C@H]1CC[C@H](CCN2CCC(c3cccc4c3CCO4)CC2)CC1)C1CCCO1 (mixture of isomers)
7.88

# get_value(readout= pKi, system= 5-hydroxytryptamine receptor 2A (Homo sapiens)) for "CN1CCC(N(Cc2cc(-c3ccc4[nH]ccc4c3)ccc2F)C(=O)c2ccc(OC(F)(F)F)cc2)CC1"
8.22

# get_value(readout= pKi, system= 5-hydroxytryptamine receptor 2A (Homo sapiens)) for "CN1CCN(Cc2cc(-c3ccc4[nH]c(=O)oc4c3)co2)[C@H](c2ccc(F)cc2)C1"
7.79

# get_value(readout= pKi, system= 5-hydroxytryptamine receptor 2A (Homo sapiens)) for "O=C(N[C@H]1CC[C@H](CCN2CCC(c3coc4ccccc34)CC2)CC1)c1ccc2ncccc2c1"
7.96
